// data source = the supplement of paper PMC12645437

Target: T1, CRBN, Q96SW2;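 further: pooled lentiviral library of zinc finger degron-EGFP fusions in mCherry-positive Jurkat cells, FACS-sorted after compound exposure, with degron abundance counted by next-generation sequencing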
T1 chain: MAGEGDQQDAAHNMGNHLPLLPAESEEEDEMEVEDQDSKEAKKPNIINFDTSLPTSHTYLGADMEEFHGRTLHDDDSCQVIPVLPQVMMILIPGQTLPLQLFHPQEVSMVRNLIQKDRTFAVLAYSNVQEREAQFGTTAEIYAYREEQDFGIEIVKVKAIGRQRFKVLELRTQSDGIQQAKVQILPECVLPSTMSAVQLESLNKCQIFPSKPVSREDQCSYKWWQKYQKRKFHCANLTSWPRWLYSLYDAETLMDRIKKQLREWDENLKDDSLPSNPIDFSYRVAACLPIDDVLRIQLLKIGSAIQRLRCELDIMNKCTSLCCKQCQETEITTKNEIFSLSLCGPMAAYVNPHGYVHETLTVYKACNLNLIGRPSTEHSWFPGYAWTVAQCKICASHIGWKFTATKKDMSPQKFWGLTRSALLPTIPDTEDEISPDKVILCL
Assay: log2 fold change of degron read counts, EGFP-low vs EGFP+ sorted cells (limma voom), compound-induced degradation; higher = more compound-induced degradation of the degron-EGFP fusion; degrons are variants of IKZF1/3 zinc finger 2; compound dose not given here
Details: Jurkat; 18 h; compound: thalidomide
Whole data set: some 8,300 sequences, median “log2 fold change of degron read counts, EGFP-low vs EGFP+ sorted cells (limma voom), compound-induced degradation” near -1.1, cut for the highest 2% near 3.2. For the sample, the highest values were picked, then their nearest neighbours and some sequences at random.
property: log2 fold change of degron read counts
Numbers only.

Known log2 fold change of degron read counts results, listed for orientation:
| sequenceEntry | log2 fold change of degron read counts |
| --- | --- |
| FYCDICGARFTQKGNLLRHIKL [46F_47Y_49D_50I_52G_53A_54R_55F_67L_, Q9UKT9] | -0.312 |
| FRCDICGARFTQKGNLLRHIKL [46F_47R_49D_50I_52G_53A_54R_55F_67L_, Q9UKT9] | -0.575 |
| FVCDICGARFTQKGNLLRHIKL [46F_47V_49D_50I_52G_53A_54R_55F_67L_, Q9UKT9] | 1.47 |

Moving on to the next sequence.
Record request: log2 fold change of degron read counts value, item FGCDICGARFTQKGNLLRHIKL [46F_47G_49D_50I_52G_53A_54R_55F_67L_, Q9UKT9]
0.195
